molecular target: cloned human hERG channel (Homo sapiens); construct: expressed in transfected cells; host or cells: HEK cells; assay: In vitro effect on hERG channels, whole-cell patch clamp in HEK cells; type: cell-based; conditions: Table 3, pacing rate 0.1 Hz, 37 °C, read-out: IhERG, 0.1 HZ, IC50
Where a name gives a salt, the structure may show the parent alone.
Please respond with true (1) when measured IC50 is strictly beneath 20 µM, and with false (0) in all other cases.

-- ask Hello, is IC50 of the following compound strictly smaller than 20 µM? CN(C)CC/C=C1/c2ccccc2C[C@H](O)c2ccccc21 [reference compound]
-- reply true (1)

-- ask IC50 strictly < 20 µM for this compound? COCCOCCOCCOCCOCCOCCOCCOCCO[C@H]1Cc2ccccc2/C(=C/CCN(C)C)c2ccccc21 [trifluoroacetate salt]
-- reply false (0)

-- ask Answer whether the compound COCCOCCOCCOCCO[C@H]1Cc2ccccc2/C(=C/CCN(C)C)c2ccccc21 [trifluoroacetate salt] has IC50 strictly less than 20 µM
-- reply true (1)

-- ask Consider the compound COCCOCCOCCOCCO[C@@H]1Cc2ccccc2/C(=C/CCN(C)C)c2ccccc21 [trifluoroacetate salt] . Is its IC50 strictly less than 20 µM?
-- reply false (0)

-- ask API: query returns whether the compound falls strictly under 20 µM in IC50. Query: COCCOCCOCCOCCOCCOCCO[C@@H]1Cc2ccccc2/C(=C/CCN(C)C)c2ccccc21 [trifluoroacetate salt]
-- reply true (1)

-- ask Is 20 µM strictly greater than the compound's reported IC50? compound: COCCOCCOCCOCCOCCOCCO[C@H]1Cc2ccccc2/C(=C/CCN(C)C)c2ccccc21 [trifluoroacetate salt]
-- reply false (0)

-- ask Check if IC50 falls below 20 µM for COCCOCCOCCOCCOCCOCCOCCOCCO[C@@H]1Cc2ccccc2/C(=C/CCN(C)C)c2ccccc21 [trifluoroacetate salt] .
-- reply false (0)

-- ask API: query returns whether the compound falls strictly under 20 µM in IC50. Query: CN(C)CC/C=C1/c2ccccc2C[C@@H](O)c2ccccc21 [reference compound]
-- reply true (1)

====

biological target: human norepinephrine transporter (hNET) (Homo sapiens, UniProt P23975); construct: expressed in transfected cells; host or cells: MDCK cells; test: Binding affinity to human norepinephrine transporter (hNET), [3H]Nisoxetine displacement; details: Table 2; membranes from MDCK cells expressing hNET, [3H]Nisoxetine 2 nM; read-out: NET binding, Ki
Sequence (P23975 whole entry): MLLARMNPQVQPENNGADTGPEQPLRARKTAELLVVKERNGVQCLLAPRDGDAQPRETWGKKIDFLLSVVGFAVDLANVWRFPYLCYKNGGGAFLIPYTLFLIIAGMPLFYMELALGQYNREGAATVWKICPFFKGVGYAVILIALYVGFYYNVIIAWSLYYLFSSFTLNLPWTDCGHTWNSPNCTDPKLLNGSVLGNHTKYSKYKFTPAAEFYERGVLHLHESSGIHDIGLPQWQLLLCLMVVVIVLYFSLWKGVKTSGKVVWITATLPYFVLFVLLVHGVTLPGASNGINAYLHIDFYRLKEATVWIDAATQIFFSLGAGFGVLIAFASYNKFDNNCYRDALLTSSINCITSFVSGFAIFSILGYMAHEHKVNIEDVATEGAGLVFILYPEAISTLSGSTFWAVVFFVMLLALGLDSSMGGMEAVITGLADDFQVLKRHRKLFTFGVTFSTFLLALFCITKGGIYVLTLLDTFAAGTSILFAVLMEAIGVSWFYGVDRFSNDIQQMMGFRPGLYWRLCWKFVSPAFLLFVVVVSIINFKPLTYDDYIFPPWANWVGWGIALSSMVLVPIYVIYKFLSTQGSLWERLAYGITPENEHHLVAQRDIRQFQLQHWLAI
Structures can show the parent of a compound that is named as a salt.
EXPERIMENTAL READOUT: Ki (µM)
# unit: µM | format: bare number

-- ask Retrieve Ki measured for COCCOCCOCCOCCOCCOCCOCCOCCO[C@@H]1Cc2ccccc2/C(=C\CCN(C)C)c2ccccc21 [trifluoroacetate salt] and print it.
-- reply 13.5

-- ask Write down Ki measured for item COCCO[C@@H]1Cc2ccccc2/C(=C\CCN(C)C)c2ccccc21 [trifluoroacetate salt]
-- reply 4.45

-- ask For the compound CN(C)CC/C=C1\c2ccccc2C[C@@H](O)c2ccccc21 [reference compound] , give its measured Ki value.
-- reply 2.53

-- ask Give recorded Ki. COCCOCCOCCOCCO[C@@H]1Cc2ccccc2/C(=C\CCN(C)C)c2ccccc21 [trifluoroacetate salt]
-- reply 28.1

-- ask Please give the documented Ki of COCCOCCOCCOCCOCCOCCOCCOCCO[C@H]1Cc2ccccc2/C(=C\CCN(C)C)c2ccccc21 [trifluoroacetate salt]
-- reply 14

-- ask Return Ki for the following compound: COCCOCCOCCOCCO[C@H]1Cc2ccccc2/C(=C\CCN(C)C)c2ccccc21 [trifluoroacetate salt]
-- reply 12.6

-- ask Please indicate Ki recorded for COCCOCCO[C@@H]1Cc2ccccc2/C(=C\CCN(C)C)c2ccccc21 [trifluoroacetate salt]
-- reply 49.1

-- ask Give the reported Ki for this compound. COCCOCCOCCOCCOCCOCCO[C@H]1Cc2ccccc2/C(=C\CCN(C)C)c2ccccc21 [trifluoroacetate salt]
-- reply 14.2

-- ask Provide Ki value for the following compound: COCCOCCOCCOCCOCCOCCO[C@@H]1Cc2ccccc2/C(=C\CCN(C)C)c2ccccc21 [trifluoroacetate salt]
-- reply 60.4

-- ask Look up and report measured Ki for this entry: CN(C)CC/C=C1\c2ccccc2C[C@H](O)c2ccccc21 [reference compound]
-- reply 0.34

====

molecular target: cloned human hERG channel (Homo sapiens, UniProt Q12809); construct: expressed in transfected cells; host or cells: HEK cells; experiment: In vitro effect on hERG channels, whole-cell patch clamp in HEK cells; assay type: cell-based; settings: Table 1, pacing rate 0.1 Hz, 37 °C, read-out: IhERG, 0.1 HZ, IC50
Sequence (Q12809 whole entry): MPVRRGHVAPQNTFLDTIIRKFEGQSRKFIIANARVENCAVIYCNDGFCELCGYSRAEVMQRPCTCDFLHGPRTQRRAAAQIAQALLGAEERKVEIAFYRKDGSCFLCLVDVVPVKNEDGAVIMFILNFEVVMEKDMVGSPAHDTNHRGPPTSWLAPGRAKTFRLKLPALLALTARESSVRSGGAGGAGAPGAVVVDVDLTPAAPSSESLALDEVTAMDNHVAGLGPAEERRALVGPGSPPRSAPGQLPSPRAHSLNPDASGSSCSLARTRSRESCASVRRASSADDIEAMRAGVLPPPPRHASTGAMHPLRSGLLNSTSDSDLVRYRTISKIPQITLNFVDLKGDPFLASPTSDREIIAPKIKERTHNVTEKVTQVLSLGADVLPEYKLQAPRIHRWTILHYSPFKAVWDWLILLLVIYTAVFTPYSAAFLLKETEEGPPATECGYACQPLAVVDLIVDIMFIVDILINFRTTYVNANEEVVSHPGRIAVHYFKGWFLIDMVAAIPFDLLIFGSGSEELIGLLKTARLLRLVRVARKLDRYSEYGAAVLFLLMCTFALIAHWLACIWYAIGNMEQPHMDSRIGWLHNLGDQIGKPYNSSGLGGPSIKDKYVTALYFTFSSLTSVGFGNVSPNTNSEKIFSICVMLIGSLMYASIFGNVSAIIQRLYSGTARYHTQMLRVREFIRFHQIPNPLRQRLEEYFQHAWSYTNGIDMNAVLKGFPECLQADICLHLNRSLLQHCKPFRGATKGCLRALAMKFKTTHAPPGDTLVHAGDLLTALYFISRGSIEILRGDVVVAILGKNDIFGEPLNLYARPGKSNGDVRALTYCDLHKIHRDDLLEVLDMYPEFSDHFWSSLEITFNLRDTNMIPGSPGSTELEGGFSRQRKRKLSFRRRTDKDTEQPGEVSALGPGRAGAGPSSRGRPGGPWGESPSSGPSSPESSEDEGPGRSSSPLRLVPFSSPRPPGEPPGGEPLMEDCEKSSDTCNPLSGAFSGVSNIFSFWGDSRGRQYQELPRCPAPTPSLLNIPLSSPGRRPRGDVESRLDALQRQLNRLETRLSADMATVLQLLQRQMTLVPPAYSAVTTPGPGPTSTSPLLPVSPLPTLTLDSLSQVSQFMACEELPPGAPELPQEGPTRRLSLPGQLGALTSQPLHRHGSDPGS
Counter-ions that a name gives are not always drawn.
Exercise: for every item that follows, state its recorded pIC50.
// pIC50 is dimensionless: -log10 of concentration (M)

-- ask Answer with the recorded pIC50 for the molecule listed here: COCCOCCOCCOCCOCCOCCOCCOCCOc1ccc2c(c1)CCc1ccccc1/C2=C/CCN(C)C [hydrochloride salt]
-- reply 4.58

-- ask Read the entry COCCOCCOCCOCCOc1ccc2c(c1)CCc1ccccc1/C2=C\CCN(C)C [hydrochloride salt] and write its reported pIC50.
-- reply 5.24

-- ask Please report pIC50 for the following molecule: COCCOCCOCCOCCOCCOCCOCCOCCOc1ccc2c(c1)CCc1ccccc1/C2=C\CCN(C)C [hydrochloride salt]
-- reply 5.66

-- ask Complete the entry with pIC50 for COCCOCCOCCOCCOc1ccc2c(c1)CCc1ccccc1/C2=C/CCN(C)C [hydrochloride salt]
-- reply 4.60

-- ask Supply recorded pIC50 for CN(C)CC/C=C1/c2ccccc2CCc2cc(O)ccc21 [reference compound] here.
-- reply 5.80
